The molecules listed here are annotated with their inhibition.
- MEASUREMENT TARGET: Phosphatidylinositol 4,5-bisphosphate 3-kinase catalytic subunit beta isoform (Homo sapiens)
- Sequence (P42338 whole entry, looked up, canonical isoform): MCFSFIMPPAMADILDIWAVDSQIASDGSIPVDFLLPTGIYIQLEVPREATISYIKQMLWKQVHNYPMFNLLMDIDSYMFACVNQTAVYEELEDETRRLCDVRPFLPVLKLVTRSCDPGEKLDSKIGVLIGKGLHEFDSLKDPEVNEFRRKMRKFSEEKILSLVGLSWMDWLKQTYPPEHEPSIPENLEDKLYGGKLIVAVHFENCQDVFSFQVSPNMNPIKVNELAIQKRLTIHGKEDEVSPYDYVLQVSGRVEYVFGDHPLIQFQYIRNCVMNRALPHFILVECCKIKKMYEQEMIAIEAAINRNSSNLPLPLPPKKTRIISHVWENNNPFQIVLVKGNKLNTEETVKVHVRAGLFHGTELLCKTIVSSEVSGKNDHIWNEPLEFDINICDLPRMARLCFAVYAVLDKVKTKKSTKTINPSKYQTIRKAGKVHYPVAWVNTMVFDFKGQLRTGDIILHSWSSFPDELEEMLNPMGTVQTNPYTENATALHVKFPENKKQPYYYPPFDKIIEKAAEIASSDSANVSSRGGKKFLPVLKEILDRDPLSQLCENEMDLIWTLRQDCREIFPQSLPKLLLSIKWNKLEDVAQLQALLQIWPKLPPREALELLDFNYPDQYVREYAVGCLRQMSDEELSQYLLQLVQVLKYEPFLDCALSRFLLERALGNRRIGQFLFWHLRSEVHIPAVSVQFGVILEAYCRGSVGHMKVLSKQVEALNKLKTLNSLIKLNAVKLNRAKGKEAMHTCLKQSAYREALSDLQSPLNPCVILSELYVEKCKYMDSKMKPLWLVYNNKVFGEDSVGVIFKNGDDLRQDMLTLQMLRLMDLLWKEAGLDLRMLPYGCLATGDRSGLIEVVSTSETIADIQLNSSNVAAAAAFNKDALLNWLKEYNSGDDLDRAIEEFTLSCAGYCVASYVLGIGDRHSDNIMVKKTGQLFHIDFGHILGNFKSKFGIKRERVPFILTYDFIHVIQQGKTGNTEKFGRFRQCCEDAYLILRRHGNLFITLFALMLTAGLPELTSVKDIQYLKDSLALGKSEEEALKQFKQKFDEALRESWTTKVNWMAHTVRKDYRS
- ASSAY OVERVIEW: Inhibition of PI3Kbeta (unknown origin) at 10 uM incubated for 60 mins by kinase-glo luminescence assay
ENDPOINT: inhibition

1. O=c1nc(N2CCOCC2)oc2ccc(-c3cc4ccccc4s3)cc12 20%
2. NC(=O)c1ccc(-c2cccc3c(=O)nc(N4CCOCC4)oc23)cc1 13%
3. O=c1nc(N2CCOCC2)oc2ccc(-c3cccc4c3oc3ccccc34)cc12 6%
4. O=c1nc(N2CCOCC2)oc2c(-c3cccs3)cc(Cl)cc12 0%
5. O=c1nc(N2CCOCC2)oc2ccc(/C=C/c3ccccc3)cc12 29%
6. COc1ccc(-c2cccc3c(=O)nc(N4CCOCC4)oc23)cc1 22%
7. O=c1nc(N2CCOCC2)oc2c(-c3cccc4c3sc3ccccc34)cc(Cl)cc12 59%
8. O=c1nc(N2CCOCC2)oc2ccc(-c3cccc(-c4ccccc4)c3)cc12 13%
9. O=c1nc(N2CCOCC2)oc2ccc(-c3cccnc3)cc12 36%

* * *

- ASSAY OVERVIEW: Cytotoxicity against human BT549 cells assessed as cell growth inhibition at 10 uM after 48 hrs by SRB assay relative to control
- Type: functional
- EXPERIMENTAL SETUP: BT-549, 48 h, read-out: GI
ENDPOINT: inhibition of growth at 10 µM

1) O=c1nc(N2CCOCC2)oc2c(-c3cccc4c3oc3ccccc34)cccc12 2.25%
2) COc1ccc(-c2cccc3c(=O)nc(N4CCOCC4)oc23)cc1 4.99%
3) O=c1nc(N2CCOCC2)oc2c(-c3cccc4ccccc34)cccc12 14.7%
4) O=c1nc(N2CCOCC2)oc2c(-c3ccsc3)cccc12 4.54%
5) O=c1nc(N2CCOCC2)oc2ccc(-c3cccc4c3sc3ccccc34)cc12 4.62%
6) O=c1nc(N2CCOCC2)oc2c(-c3cccc4c3sc3ccccc34)cccc12 13.6%
7) O=c1nc(N2CCOCC2)oc2c(-c3cccs3)cccc12 14.5%
8) NC(=O)c1ccc(-c2cccc3c(=O)nc(N4CCOCC4)oc23)cc1 1.94%

* * *

The compounds listed here are annotated with their inhibition of growth at 10 µM.
- System: SK-MEL-28
- ASSAY OVERVIEW: Cytotoxicity against human SK-MEL-28 cells assessed as cell growth inhibition at 10 uM after 48 hrs by SRB assay relative to control
- Type: functional
- EXPERIMENTAL SETUP: SK-MEL-28, 48 h, read-out: GI
ENDPOINT: inhibition of growth at 10 µM (%)

1. O=c1nc(N2CCOCC2)oc2c(-c3ccsc3)cccc12 8.4
2. O=c1nc(N2CCOCC2)oc2c(-c3cccc4c3sc3ccccc34)cccc12 -2.77
3. O=c1nc(N2CCOCC2)oc2ccc(-c3cccc4c3sc3ccccc34)cc12 4.76
4. O=c1nc(N2CCOCC2)oc2c(-c3cccs3)cccc12 2.22
5. O=c1nc(N2CCOCC2)oc2c(-c3cccc4c3oc3ccccc34)cccc12 2.4
6. O=c1nc(N2CCOCC2)oc2c(-c3cccc4ccccc34)cccc12 5.64
7. COc1ccc(-c2cccc3c(=O)nc(N4CCOCC4)oc23)cc1 2.38
8. NC(=O)c1ccc(-c2cccc3c(=O)nc(N4CCOCC4)oc23)cc1 -3.25

* * *

- System: K562
- ASSAY OVERVIEW: Cytotoxicity against human K562 cells assessed as cell growth inhibition at 10 uM after 48 hrs by SRB assay relative to control
- Format: functional
- EXPERIMENTAL SETUP: K562, 48 h, read-out: GI
Binary classification by inhibition of growth at 10 µM, with 10% as an inclusive lower bound for 1; all other cases are 0.

1. O=c1nc(N2CCOCC2)oc2ccc(-c3cccc4c3sc3ccccc34)cc12 1
2. O=c1nc(N2CCOCC2)oc2c(-c3cccc4c3sc3ccccc34)cccc12 1
3. NC(=O)c1ccc(-c2cccc3c(=O)nc(N4CCOCC4)oc23)cc1 0
4. COc1ccc(-c2cccc3c(=O)nc(N4CCOCC4)oc23)cc1 0
5. O=c1nc(N2CCOCC2)oc2c(-c3cccc4c3oc3ccccc34)cccc12 1
6. O=c1nc(N2CCOCC2)oc2c(-c3ccsc3)cccc12 0
7. O=c1nc(N2CCOCC2)oc2c(-c3cccs3)cccc12 0

* * *

- System: NCI-H322M
- ASSAY OVERVIEW: Cytotoxicity against human NCI-H322M cells assessed as cell growth inhibition at 10 uM after 48 hrs by SRB assay relative to control
- Assay type: functional
- EXPERIMENTAL SETUP: read-out: GI
The molecules listed here are annotated with their inhibition of growth at 10 µM.
ENDPOINT: inhibition of growth at 10 µM (%)

1. O=c1nc(N2CCOCC2)oc2c(-c3cccc4ccccc34)cccc12 9.24
2. O=c1nc(N2CCOCC2)oc2ccc(-c3cccc4c3sc3ccccc34)cc12 -0.24
3. O=c1nc(N2CCOCC2)oc2c(-c3cccs3)cccc12 9.05
4. O=c1nc(N2CCOCC2)oc2c(-c3cccc4c3sc3ccccc34)cccc12 18.3
5. O=c1nc(N2CCOCC2)oc2c(-c3ccsc3)cccc12 16
6. NC(=O)c1ccc(-c2cccc3c(=O)nc(N4CCOCC4)oc23)cc1 7.01
7. COc1ccc(-c2cccc3c(=O)nc(N4CCOCC4)oc23)cc1 3.11
8. O=c1nc(N2CCOCC2)oc2c(-c3cccc4c3oc3ccccc34)cccc12 22.3

* * *

The compounds listed here are annotated with their inhibition of growth at 10 µM.
- ASSAY OVERVIEW: Cytotoxicity against human SNB19 cells assessed as cell growth inhibition at 10 uM after 48 hrs by SRB assay relative to control
- Type: functional
- EXPERIMENTAL SETUP: SNB-19, 48 h, read-out: GI
ENDPOINT: inhibition of growth at 10 µM (%)

1) O=c1nc(N2CCOCC2)oc2c(-c3cccc4c3sc3ccccc34)cccc12 18.5
2) COc1ccc(-c2cccc3c(=O)nc(N4CCOCC4)oc23)cc1 -0.25
3) O=c1nc(N2CCOCC2)oc2c(-c3cccc4ccccc34)cccc12 8.18
4) NC(=O)c1ccc(-c2cccc3c(=O)nc(N4CCOCC4)oc23)cc1 0.88
5) O=c1nc(N2CCOCC2)oc2c(-c3ccsc3)cccc12 -3.77
6) O=c1nc(N2CCOCC2)oc2ccc(-c3cccc4c3sc3ccccc34)cc12 4.68
7) O=c1nc(N2CCOCC2)oc2c(-c3cccc4c3oc3ccccc34)cccc12 4.3
8) O=c1nc(N2CCOCC2)oc2c(-c3cccs3)cccc12 5.86

* * *

The molecules listed here are annotated with their inhibition.
- MEASUREMENT TARGET: Phosphatidylinositol 4,5-bisphosphate 3-kinase catalytic subunit delta isoform (Homo sapiens)
- Sequence (whole entry): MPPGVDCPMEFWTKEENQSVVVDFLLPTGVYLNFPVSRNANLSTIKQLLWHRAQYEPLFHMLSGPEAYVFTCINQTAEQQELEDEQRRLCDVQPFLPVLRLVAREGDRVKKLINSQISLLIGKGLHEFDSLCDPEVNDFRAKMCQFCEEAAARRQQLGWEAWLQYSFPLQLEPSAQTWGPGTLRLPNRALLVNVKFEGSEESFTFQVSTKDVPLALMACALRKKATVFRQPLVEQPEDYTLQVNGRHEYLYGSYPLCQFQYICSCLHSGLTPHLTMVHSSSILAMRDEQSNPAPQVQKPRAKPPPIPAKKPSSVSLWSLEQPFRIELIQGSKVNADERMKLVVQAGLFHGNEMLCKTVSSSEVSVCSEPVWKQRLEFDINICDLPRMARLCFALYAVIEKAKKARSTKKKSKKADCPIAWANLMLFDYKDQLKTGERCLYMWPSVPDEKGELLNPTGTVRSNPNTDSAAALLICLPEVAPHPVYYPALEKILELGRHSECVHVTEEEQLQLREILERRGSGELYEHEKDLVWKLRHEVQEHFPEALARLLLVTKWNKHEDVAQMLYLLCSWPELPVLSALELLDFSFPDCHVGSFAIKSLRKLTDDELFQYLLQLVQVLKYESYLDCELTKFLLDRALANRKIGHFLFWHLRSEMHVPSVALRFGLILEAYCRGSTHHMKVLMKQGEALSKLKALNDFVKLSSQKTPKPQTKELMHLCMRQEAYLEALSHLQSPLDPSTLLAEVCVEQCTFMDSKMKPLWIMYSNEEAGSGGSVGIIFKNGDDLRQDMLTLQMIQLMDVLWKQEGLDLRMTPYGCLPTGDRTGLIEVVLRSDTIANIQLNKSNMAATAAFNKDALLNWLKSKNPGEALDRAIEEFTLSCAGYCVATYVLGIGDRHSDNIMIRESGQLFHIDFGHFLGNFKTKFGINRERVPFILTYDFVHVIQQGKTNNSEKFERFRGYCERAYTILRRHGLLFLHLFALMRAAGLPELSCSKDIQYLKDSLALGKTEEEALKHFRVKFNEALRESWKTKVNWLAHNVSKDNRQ
- ASSAY OVERVIEW: Inhibition of PI3Kdelta (unknown origin) at 10 uM incubated for 60 mins by kinase-glo luminescence assay
ENDPOINT: inhibition (%)

1. COc1ccc(-c2ccc3oc(N4CCOCC4)nc(=O)c3c2)cc1 0
2. O=c1nc(N2CCOCC2)oc2ccc(-c3cccc4c3oc3ccccc34)cc12 0
3. O=c1nc(N2CCOCC2)oc2ccc(-c3cccnc3)cc12 3
4. O=c1nc(N2CCOCC2)oc2ccc(-c3cccc4ccccc34)cc12 0
5. O=c1nc(N2CCOCC2)oc2ccc(-c3ccc(Cl)cc3)cc12 0
6. O=c1nc(N2CCOCC2)oc2c(-c3cccnc3)cccc12 37
7. O=c1nc(N2CCOCC2)oc2ccc(/C=C/c3ccccc3)cc12 0
8. O=c1nc(N2CCOCC2)oc2ccc(-c3cc4ccccc4s3)cc12 0
9. O=c1nc(N2CCOCC2)oc2c(-c3cccc4c3sc3ccccc34)cc(Cl)cc12 36
10. O=c1nc(N2CCOCC2)oc2c(-c3cc4ccccc4s3)cc(Cl)cc12 16
11. Nc1cccc(-c2cccc3c(=O)nc(N4CCOCC4)oc23)c1 4
12. O=c1nc(N2CCOCC2)oc2ccc(-c3cccc(-c4ccccc4)c3)cc12 0
13. O=c1nc(N2CCOCC2)oc2ccc(-c3ccccc3)cc12 0
14. O=c1nc(N2CCOCC2)oc2ccc(-c3ccc(CO)cc3)cc12 0
15. O=c1nc(N2CCOCC2)oc2ccc(-c3cccc4c3sc3ccccc34)cc12 0
